- TARGET_ENTITY: human SphK1 (Homo sapiens)
- Sequence (Q9NYA1 whole entry): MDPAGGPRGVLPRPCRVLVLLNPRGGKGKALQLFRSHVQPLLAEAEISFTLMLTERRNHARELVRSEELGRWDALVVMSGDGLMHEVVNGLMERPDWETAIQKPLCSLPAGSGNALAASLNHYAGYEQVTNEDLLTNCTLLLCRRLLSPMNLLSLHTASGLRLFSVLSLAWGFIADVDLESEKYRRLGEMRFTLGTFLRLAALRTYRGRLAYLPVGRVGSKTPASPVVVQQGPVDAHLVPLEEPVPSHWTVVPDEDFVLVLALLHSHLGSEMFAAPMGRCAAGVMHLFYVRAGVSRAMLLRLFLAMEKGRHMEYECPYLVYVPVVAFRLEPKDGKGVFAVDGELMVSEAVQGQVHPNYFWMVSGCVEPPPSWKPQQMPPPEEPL
- EXPERIMENT: Sphingosine kinase assay, recombinant human SphK1, γ-[32P]ATP
- CONDITION_DESCRIPTION: read-out: hSphK1 (SphK activity, % control, no inhibitor added)
Consider the following compounds; for each one, report its remaining activity at 0.3 µM.
Give the number; % is assumed, so skip it.

The reported remaining activity at 0.3 µM of the compound COc1ccc(-c2csc(Nc3ccc(-c4noc(C[C@@H]5CCCN5C(=N)N)n4)cc3)n2)cc1 [Compound 20o] was 58

get_value(item= N=C(N)N1CCC[C@H]1Cc1nc(-c2ccc(Nc3nc(-c4cccc(OC(F)(F)F)c4)cs3)cc2)no1 [Compound 20s] , readout=remaining activity at 0.3 µM) returns 90

Looking up Cc1ccc(-c2csc(Nc3ccc(-c4noc(C[C@@H]5CCCN5C(=N)N)n4)cc3)n2)cc1 [Compound 20n] , I see its remaining activity at 0.3 µM listed as 89

The reported remaining activity at 0.3 µM of the compound CCOc1ccc(-c2csc(Nc3ccc(-c4noc(C[C@@H]5CCCN5C(=N)N)n4)cc3)n2)cc1 [Compound 20p] was 75

###

- TARGET_ENTITY: human SphK2 (Homo sapiens)
- Sequence (Q9NRA0 whole entry): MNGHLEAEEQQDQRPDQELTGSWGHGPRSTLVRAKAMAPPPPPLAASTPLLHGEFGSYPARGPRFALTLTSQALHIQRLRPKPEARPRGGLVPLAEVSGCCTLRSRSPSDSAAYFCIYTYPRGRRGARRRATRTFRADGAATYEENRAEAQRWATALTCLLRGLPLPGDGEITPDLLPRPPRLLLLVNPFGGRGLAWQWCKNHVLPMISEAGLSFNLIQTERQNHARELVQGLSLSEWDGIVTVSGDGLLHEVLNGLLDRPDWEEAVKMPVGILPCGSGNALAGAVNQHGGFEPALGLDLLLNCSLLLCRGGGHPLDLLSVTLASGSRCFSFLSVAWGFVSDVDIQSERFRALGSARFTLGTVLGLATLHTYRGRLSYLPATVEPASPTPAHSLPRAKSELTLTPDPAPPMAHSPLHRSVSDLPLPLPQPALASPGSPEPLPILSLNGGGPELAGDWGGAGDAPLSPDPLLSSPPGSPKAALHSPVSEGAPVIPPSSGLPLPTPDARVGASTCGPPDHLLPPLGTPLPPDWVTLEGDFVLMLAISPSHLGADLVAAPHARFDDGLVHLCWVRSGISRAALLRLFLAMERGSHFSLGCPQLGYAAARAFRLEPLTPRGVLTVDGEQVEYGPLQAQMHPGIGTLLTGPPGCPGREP
- EXPERIMENT: Sphingosine kinase assay, recombinant human SphK2, γ-[32P]ATP
- CONDITION_DESCRIPTION: read-out: hSphK2 (SphK activity, % control, no inhibitor added)
Hi there, I'd appreciate the recorded remaining activity at 0.3 µM for every entry that follows.

For record CCOc1ccc(-c2csc(Nc3ccc(-c4noc(C[C@@H]5CCCN5C(=N)N)n4)cc3)n2)cc1 [Compound 20p] the listed remaining activity at 0.3 µM is 80%

// sample Cc1ccc(-c2csc(Nc3ccc(-c4noc(C[C@@H]5CCCN5C(=N)N)n4)cc3)n2)cc1 [Compound 20n] , its remaining activity at 0.3 µM was 44%

// COc1ccc(-c2csc(Nc3ccc(-c4noc(C[C@@H]5CCCN5C(=N)N)n4)cc3)n2)cc1 [Compound 20o] : remaining activity at 0.3 µM value = 82%

The compound identified as N=C(N)N1CCC[C@H]1Cc1nc(-c2ccc(Nc3nc(-c4ccc(OC(F)(F)F)cc4)cs3)cc2)no1 [Compound 20r] registered its remaining activity at 0.3 µM at 84%

Please fill in: remaining activity at 0.3 µM reported for N=C(N)N1CCC[C@H]1Cc1nc(-c2ccc(Nc3nc(-c4cccc(OC(F)(F)F)c4)cs3)cc2)no1 [Compound 20s] = 100%
